PROTOCOL DETAILS: basal MM1S mitochondrial membrane potential changes, profiling panel, cell-based, JC-1 fluorescence, 24 h, 100 nL compound (AID 1170); also: test concentration not given here
MEASUREMENT CONDITIONS: higher = more signal
This listing pairs compounds with measured z-score.
Please respond with just the number, no unit label.

CC1(C)[C@@H]2CC(C(O)C3C=CC4C(=O)N(Cc5ccccc5)C(=O)C4N3n3cnnc3)=C[C@H]1C2 (some centres undefined) | -0.649
O=C1C2C=CC(C(O)c3cc(C(F)(F)F)cc(C(F)(F)F)c3)N(n3cnnc3)C2C(=O)N1Cc1ccccc1 (centres undefined) | 0.914
CN1C(=O)C2C=CC(C(O)c3ccccc3)N(N(c3ccccc3)c3ccccc3)C2C1=O (centres undefined) | 0.102

// switching to the query compound
(Q) // returns reported z-score for input CCCc1cc2c(n1Cc1cc(F)cc(F)c1)C(C)C1CN(C(=O)c3ccccc3)C(C)(C(=O)OC)C21 (centres undefined)
(A) -1.79

###

PROTOCOL DETAILS: binders of probe aFST on microarray, primary screen, stem cell growth factor project, biochemical, small-molecule microarray, fluorescence 635/667 (AID 1086);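 also: score merges 667 nm fluorescence with signal-to-noise of each printed compound spot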
MEASUREMENT CONDITIONS: higher = more signal
This listing pairs molecules with measured composite z-score.

Reference set, count: 4
[N-]=[N+]=Nc1ccccc1[C@@H]1OC(c2ccc(OCCCO)cc2)=N[C@]1(CCS(=O)(=O)c1ccccc1)C(N)=O | 2.08
COC(=O)[C@@]1(Cc2ccc(F)cc2)[C@H]2c3cc(C(=O)N4CCCC4)n(CCCNc4ncc(C(F)(F)F)cc4Cl)c3C[C@H]2CN1C(=O)c1ccccc1 | 0.977
O=C(NCCO)C1=C[C@H](Oc2ccccc2I)[C@@H](O)[C@H](N(Cc2ccco2)C(=O)Cc2ccccc2)C1 | -0.0165
C=CCNC(=O)[C@@H]1[C@H]2C(=O)O[C@H](c3ccccc3)[C@H](c3ccccc3)N2[C@H](c2ccc(OCCO)cc2)[C@@]12C(=O)Nc1ccc(C#CCC(C(=O)OC)C(=O)OC)cc12 | 0.452

(Q) // returns reported composite z-score for input "COc1ccc([Si](C)(C)[C@H]2[C@H](CC(=O)N3Cc4ccccc4C[C@H]3CO)O[C@@]3(C(=O)N(Cc4cccc(N5CCC5=O)c4)c4ccccc43)[C@@H]2C)cc1"
(A) 0.256

(Q) Next up: "CC(C)C[C@@H]1NC(=O)[C@@H]2C[C@H](C(=O)NCc3ccc(F)cc3)[C@H](c3cccc(OCCO)c3)N2C1=O"
(A) -0.405

(Q) Next up: "COc1ccc(C#Cc2ccc3c(c2)[C@]2(C(=O)N3)[C@H](c3ccccc3OCCO)N3[C@H](c4ccccc4)[C@H](c4ccccc4)OC(=O)[C@H]3[C@@H]2C(=O)Nc2nc3ccccc3s2)cc1"
(A) 0.362

(Q) Next up: "CCCC[C@@H]1C[C@H]1[C@@H](NC(=O)c1cccs1)c1ccc(-c2ccccc2)cc1"
(A) 0.151

(Q) Next up: CN1C=C(C(=O)OCCS(C)(=O)=O)C(C(=O)OCCS(C)(=O)=O)=CC(c2ccc(CO)cc2)=CC1C1CC1 (stereo not drawn)
(A) -0.0993

(Q) Next up: "O=C1[C@@]23C=C(Br)[C@H](C[C@@H]2CCOC3)[C@@]12CO2"
(A) -0.0444

(Q) Next up: "Oc1ccc2cc[n+](Cc3sc4ccccc4c3Cl)cc2c1"
(A) 0.031

(Q) Next up: "CC(C)NC(=O)[C@@]1(c2ccc([N+](=O)[O-])cc2)CC(=O)N(C2CCCCC2)[C@@H]1c1ccc(CO)cc1I"
(A) 0.178

(Q) Next up: "CCCC[C@@H]1C[C@H]1[C@@H](NC(=O)c1ccccc1)c1ccc(C(=O)OC)cc1"
(A) -0.303

(Q) Next up: "C=C(C(=O)CC[C@@H](OC(=O)c1cccnc1)c1ccccc1OCCO)C(C)C"
(A) 0.0397

###

This listing pairs compounds with measured z-score.
TARGET ENTITY: NADPH oxidase 5 (Homo sapiens) (UniProt Q96PH1)
Sequence (Q96PH1 whole entry, looked up): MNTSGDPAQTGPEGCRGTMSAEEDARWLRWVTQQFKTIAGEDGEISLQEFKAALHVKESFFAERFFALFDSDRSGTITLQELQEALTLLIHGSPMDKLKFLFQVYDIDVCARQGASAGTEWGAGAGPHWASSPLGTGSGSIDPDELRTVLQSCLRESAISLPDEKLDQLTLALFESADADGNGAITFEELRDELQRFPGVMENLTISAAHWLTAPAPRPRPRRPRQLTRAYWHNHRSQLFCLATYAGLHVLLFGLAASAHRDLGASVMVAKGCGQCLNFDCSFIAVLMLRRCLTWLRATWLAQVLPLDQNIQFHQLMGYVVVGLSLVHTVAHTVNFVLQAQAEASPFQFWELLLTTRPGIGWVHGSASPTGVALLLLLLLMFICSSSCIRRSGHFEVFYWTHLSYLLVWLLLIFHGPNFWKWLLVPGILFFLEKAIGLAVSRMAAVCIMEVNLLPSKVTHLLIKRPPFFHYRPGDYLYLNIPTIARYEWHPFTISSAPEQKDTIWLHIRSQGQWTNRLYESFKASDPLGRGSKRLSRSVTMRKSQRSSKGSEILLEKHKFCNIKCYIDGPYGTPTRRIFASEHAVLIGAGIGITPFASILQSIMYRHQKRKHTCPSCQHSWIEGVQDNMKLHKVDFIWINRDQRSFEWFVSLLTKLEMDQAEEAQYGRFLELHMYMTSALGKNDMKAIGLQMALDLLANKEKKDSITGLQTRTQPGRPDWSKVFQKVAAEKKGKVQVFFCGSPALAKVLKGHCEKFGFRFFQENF
PROTOCOL DETAILS: NOX5-dependent H2O2 signal modulators, primary screen, NOX inhibitor project, cell-based, HEK293-NOX5, Amplex Red fluorescence (AID 1161)
MEASUREMENT CONDITIONS: HEK293-NOX5, ionomycin, 45 min, higher = more signal
Please respond with just the number, no unit label.

Reference set, count: 3
O=C(N1CCCCC1)[C@]1(Cc2ccccc2)N=C(c2ccc(OCCCO)cc2)O[C@@H]1c1ccccc1 | -1.7
C=C(CCCC)/C(=C/C[C@H](OC(C)=O)c1ccccc1OCCO)c1cc(C(=O)OC)ccc1OC | -1.92
COCCOC(=O)N1C(=O)[C@@]2(c3cc(C#CCC(C(=O)OC)C(=O)OC)ccc31)[C@H](C(=O)N1CCN(c3ncccn3)CC1)[C@H]1C(=O)O[C@H](c3ccccc3)[C@H](c3ccccc3)N1[C@@H]2c1ccccc1OCCO | 1.3

(Q) // returns reported z-score for input C=CCC(OC(C)=O)[C@@H]1[C@@H](N(Cc2ccc(-c3ccccc3)cc2)C(=O)c2ccc(-c3ccccc3)cc2)c2cc(OCCCO)ccc2N1C(=O)Cc1ccc2ccccc2c1 (stereo not given in full)
(A) 0.532

(Q) Next up: C[C@H]1C2[C@H](Cc3ccccc3)NC(=O)[C@]23C(=O)N[C@H](Cc2ccccc2)C(=O)N2CCC[C@H]2C(=O)NC/C=C\C/C=C/C3[C@@H]2O[C@]12C (stereo not given in full)
(A) 1.73

###

System: PRMT1 (protein arginine N-methyltransferase 1)
PROTOCOL DETAILS: PRMT1 binders on small-molecule microarrays, primary screen, biochemical, small-molecule microarray, 635 nm fluorescence (AID 1088);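 also: binding of Prmt1 protein to compounds spotted on small-molecule microarray slides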
MEASUREMENT CONDITIONS: small-molecule microarray binding, higher = more signal
This listing pairs compounds with measured composite z-score.
Please respond with just the number, no unit label.

O=C1O[C@H](c2ccccc2)[C@H](c2ccccc2)N2[C@H]1[C@@H](C(=O)N1CCCCCCC1)[C@]1(C(=O)Nc3ccc(C#CCCO)cc31)[C@H]2c1ccccc1OCCO | 1.55
C=CCC(OC(C)=O)[C@@H]1[C@@H](N(Cc2cc3ccccc3o2)C(=O)c2cccc3ccccc23)c2cc(OCCCO)ccc2N1C(=O)c1ccc(-c2ccccc2)cc1 (stereo partly drawn) | -0.101

// switching to the query compound
(Q) // map "O=C1O[C@@H](c2ccccc2)[C@@H](c2ccccc2)N2[C@@H](c3ccccc3OCCO)[C@]3(C(=O)Nc4ccccc43)[C@@H](C(=O)Nc3nc4ccccc4s3)[C@H]12" to recorded composite z-score (system: PRMT1 (protein arginine N-methyltransferase 1))
(A) 1.53

###

PROTOCOL DETAILS: small-molecule microarray binders of probe aShh, primary screen, biochemical, biotinylated probe, 635/667 nm fluorescence (AID 1114);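 also: probe is biotin-labelled aShh protein from a stem cell growth factor screen; measures binding of labelled protein to compounds printed on the slide; score merges feature fluorescence at 667 nm with signal-to-noise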
MEASUREMENT CONDITIONS: higher = more signal
This listing pairs compounds with measured composite z-score.
Please respond with just the number, no unit label.

Reference set, count: 5
C=CCN1C(=O)[C@@]2(Cc3ccccc31)N=C(c1ccc(OCCCO)cc1)O[C@H]2c1ccccc1 | 0.308
O=C1C2C=CC(C(O)c3cccc4ccccc34)N(Nc3ccccc3F)C2C(=O)N1c1ccccc1 (configuration not stated) | 0.14
CC(C)[Si](C#Cc1ccc(Oc2ccccc2)cc1)(O[Si](C#Cc1ccc(Oc2ccccc2)cc1)(C(C)C)C(C)C)C(C)C | -0.0337
O=C1C[C@@](C(=O)NCC(F)(F)F)(c2ccc([N+](=O)[O-])cc2)[C@@H](c2ccc(CO)cc2I)N1C1CCCCC1 | -0.181
O=C1O[C@@H](c2ccccc2)[C@@H](c2ccccc2)N2[C@@H](c3ccccc3OCCO)[C@]3(C(=O)Nc4ccc(C#CC5=CCCCC5)cc43)[C@@H](C(=O)N3CCCCCCC3)[C@H]12 | 3.21

(Q) // returns reported composite z-score for input "COC(=O)[C@H](Cc1ccccc1)N1CC2=C[C@@H](C3CC3)n3c(=O)n(C)c(=O)n3[C@H]2[C@@H]1[C@@H](O)Cc1ccccc1"
(A) -0.0035

(Q) Next up: "COCCCNC(=O)[C@]1(CCC(=O)OC(C)(C)C)N=C(c2ccc(OCCCO)cc2)O[C@@H]1c1ccccc1CN=[N+]=[N-]"
(A) 0.147

###

Tested on: Chordin-like protein 2 (CHRDL2)
PROTOCOL DETAILS: CHRDL2 small-molecule binders, primary screen, biochemical, small-molecule microarray, 635 nm fluorescence (AID 1126);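 also: printed compound slides probed with Chrdl2 protein at 4 µg/mL for 1 h at 4 C; score merges 667 nm emission intensity with signal to noise over three replicate slides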
MEASUREMENT CONDITIONS: small-molecule microarray binding, fluorescence 635 nm; higher = more signal
EXPERIMENTAL READOUT: composite z-score

(Q) // map "COC(=O)[C@@]1(Cc2ccccc2)[C@H]2c3cc(C(=O)N4CCCC4)n(Cc4ccc(S(C)(=O)=O)cc4)c3C[C@H]2CN1C(=O)c1ccccc1" to recorded composite z-score (system: Chordin-like protein 2 (CHRDL2))
(A) -0.832

(Q) Next up: "CCOC(=O)[C@H]1C/C=C/C[C@H](C(=O)OCC)C(=O)O[C@H]2[C@@H](OC)O[C@H](CO)[C@@H](OC(=O)c3c(OC)cccc3OC)[C@@H]2OC1=O"
(A) 0.83

(Q) Next up: "NC(=O)NCC#Cc1ccc2c(c1)[C@]1(C(=O)N2)[C@H](C(N)=O)[C@H]2C(=O)O[C@H](c3ccccc3)[C@H](c3ccccc3)N2[C@@H]1c1ccc(O)cc1"
(A) -0.034

(Q) Next up: "COc1ccc(C#Cc2ccc3c(c2)[C@]2(C(=O)N3)[C@H](C(=O)Nc3nc4ccccc4s3)[C@H]3C(=O)O[C@H](c4ccccc4)[C@H](c4ccccc4)N3[C@@H]2c2ccc(O)cc2)cc1"
(A) 0.172

(Q) Next up: "CC(C)C(=C=CC[C@@H](O)c1ccc(OCCO)cc1)C[C@@H](O)c1ccccn1"
(A) 1.38

(Q) Next up: C=CCC(OC(C)=O)[C@@H]1[C@@H](N(Cc2ccc(-c3cccc(C(F)(F)F)c3)o2)C(=O)c2ccc(C)cc2)c2cc(OCCCO)ccc2N1C(=O)Cc1ccc2ccccc2c1 (stereo partly specified)
(A) 0.264
